- EXPERIMENTAL TARGET: human 11βHSD1 enzyme (Homo sapiens (Human))
- Sequence (P28845 whole entry): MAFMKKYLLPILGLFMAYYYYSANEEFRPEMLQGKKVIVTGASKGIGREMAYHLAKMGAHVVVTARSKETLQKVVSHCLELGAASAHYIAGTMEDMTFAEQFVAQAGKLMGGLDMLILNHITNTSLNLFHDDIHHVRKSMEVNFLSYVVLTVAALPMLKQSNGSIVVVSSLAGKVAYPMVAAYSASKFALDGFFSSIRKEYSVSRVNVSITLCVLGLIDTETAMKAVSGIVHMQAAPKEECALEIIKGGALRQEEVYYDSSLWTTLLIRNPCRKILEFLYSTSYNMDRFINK
- PROCEDURE DETAILS: biochemical
- CONDITION CONTEXT: read-out: % inhibition of human 11-βHSD
ASSAY ENDPOINT: inhibition at 30 µM (%)
Give bare numbers, in %.

// known answers, use as guide
MOLECULE: CCCSc1nc(N2CCC[C@@H](CC(=O)O)C2)ccc1C(=O)N1CCC(C(N)=O)CC1
inhibition at 30 µM [%]: 104
//
MOLECULE: CCCSc1nc(N2CC[C@@H](C(=O)O)C2)ccc1C(=O)NC1C2CC3CC(C2)CC1C3 (stereo partly shown)
inhibition at 30 µM [%]: 91
//
MOLECULE: O=C(O)C[C@@H]1CCN(c2ccc(C(=O)NC3C4CC5CC3CC(O)(C5)C4)c(SC3CCCC3)n2)C1 (stereo partly shown)
inhibition at 30 µM [%]: 85
//
MOLECULE: CCCSc1nc(N2CCCC(C3(C(=O)O)CCC3)C2)ccc1C(=O)NC1CCCCC1 (stereo not shown)
inhibition at 30 µM [%]: 82
//
MOLECULE: O=C(O)C[C@@H]1CCCN(c2ccc(C(=O)NC3CCCCC3)c(NCCc3ccc(Cl)cc3)n2)C1
inhibition at 30 µM [%]: 94

Please give inhibition at 30 µM for each item listed below.
1. O=C(O)C[C@@H]1CCCN(c2ccc(C(=O)NC3CCCCC3)c(N3CCN(C(=O)OCc4ccccc4)CC3)n2)C1
2. CCCSc1nc(N2CCC[C@@H](CC(=O)O)C2)ccc1C(=O)N(C)[C@H]1C2CC3CC1C[C@](OC)(C3)C2

74
92

Cited source for all entries: patent US8673938B2
